- protocol details: Metabolic stability in Sprague-Dawley rat liver microsomes assessed as parent compound remaining at 10 uM measured after 60 min by HPLC analysis
- Format: ADME, Microsome
- measurement conditions: read-out: Stability
readout kind: remaining at 1 h, 10 µM (%)

{"columns": ["given smiles", "uom", "recorded value"],
 "data": [
  ["COc1cc(-c2cnc3nc2NCCCNS(=O)(=O)c2cccc(c2)N3)ccc1Br", "%", 87]
]}

---

Observed deltaTm values for Fibroblast growth factor receptor 1 (Homo sapiens, UniProt P11362) are listed in what follows.
readout kind: deltaTm

{"columns": ["given smiles", "readout kind", "recorded value"],
 "data": [
  ["O=S1(=O)NCCCNc2nc(ncc2-c2ccc(Cl)c(Cl)c2)Nc2cccc1c2", "deltaTm", "2.8 K"],
  ["COc1cc(-c2cnc3nc2NCCCNS(=O)(=O)c2cccc(c2)N3)ccc1F", "deltaTm", "3.3 K"],
  ["COc1cc(-c2cnc3nc2NCCCNS(=O)(=O)c2cc(ccc2C)N3)ccc1F", "deltaTm", "2.7 K"],
  ["COc1cc(-c2cnc3nc2NCCCNS(=O)(=O)c2cccc(c2)N3)ccc1Br", "deltaTm", "1.8 K"],
  ["COc1cc(-c2cnc3nc2NCCCNS(=O)(=O)c2cccc(c2)N3)c(F)cc1F", "deltaTm", "2.7 K"]
]}

---

- test target: Ephrin type-A receptor 4 (Homo sapiens, UniProt P54764)
- Sequence (P54764 whole entry): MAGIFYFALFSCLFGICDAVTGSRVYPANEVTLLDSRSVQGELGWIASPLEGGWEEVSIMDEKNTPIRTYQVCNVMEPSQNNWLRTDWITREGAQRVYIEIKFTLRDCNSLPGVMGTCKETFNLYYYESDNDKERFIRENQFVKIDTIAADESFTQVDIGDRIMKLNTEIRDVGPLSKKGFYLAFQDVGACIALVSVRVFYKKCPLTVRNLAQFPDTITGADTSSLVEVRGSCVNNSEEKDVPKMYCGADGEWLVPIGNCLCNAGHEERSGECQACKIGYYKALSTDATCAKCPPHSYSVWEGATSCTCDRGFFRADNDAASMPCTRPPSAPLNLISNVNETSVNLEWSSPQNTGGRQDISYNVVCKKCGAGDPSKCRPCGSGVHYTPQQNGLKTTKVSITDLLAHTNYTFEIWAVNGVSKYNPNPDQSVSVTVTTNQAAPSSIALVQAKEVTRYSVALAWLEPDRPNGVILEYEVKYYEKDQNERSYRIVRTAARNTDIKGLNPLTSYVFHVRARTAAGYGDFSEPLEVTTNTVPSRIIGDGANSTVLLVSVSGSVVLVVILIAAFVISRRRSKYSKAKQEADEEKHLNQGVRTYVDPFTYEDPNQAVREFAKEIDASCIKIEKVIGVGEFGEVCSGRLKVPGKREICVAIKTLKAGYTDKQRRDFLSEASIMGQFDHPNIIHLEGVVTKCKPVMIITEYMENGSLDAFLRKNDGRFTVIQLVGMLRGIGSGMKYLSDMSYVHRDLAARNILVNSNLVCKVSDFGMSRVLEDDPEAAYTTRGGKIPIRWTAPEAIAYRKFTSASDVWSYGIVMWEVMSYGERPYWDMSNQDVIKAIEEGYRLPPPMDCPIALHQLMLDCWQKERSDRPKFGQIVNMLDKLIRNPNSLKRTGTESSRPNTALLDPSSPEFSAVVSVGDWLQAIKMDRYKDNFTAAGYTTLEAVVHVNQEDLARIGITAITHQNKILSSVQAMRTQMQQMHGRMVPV
- protocol details: Induction of stabilization of recombinant EPHA4 (unknown origin) assessed as change in melting temperature by differential scanning fluorimetry assay
So basically: deltaTm at 3 K or higher? That is True. Lower than 3 K? That is False.

{"columns": ["given smiles", "test target", "category label"],
 "data": [
  ["COc1cc(-c2cnc3nc2NCCCNS(=O)(=O)c2cc(ccc2-c2ccc(O)cc2)N3)ccc1F", "Ephrin type-A receptor 4 (Homo sapiens, UniProt P54764)", "True"],
  ["COc1ccc(-c2cnc3nc2NCCCNS(=O)(=O)c2cccc(c2)N3)cc1OC", "Ephrin type-A receptor 4 (Homo sapiens, UniProt P54764)", "False"],
  ["O=S1(=O)NCCCNc2nc(ncc2-c2cccc(Cl)c2F)Nc2cccc1c2", "Ephrin type-A receptor 4 (Homo sapiens, UniProt P54764)", "True"],
  ["Cc1cc(Cl)c(Cl)cc1-c1cnc2nc1NCCCNS(=O)(=O)c1cccc(c1)N2", "Ephrin type-A receptor 4 (Homo sapiens, UniProt P54764)", "False"],
  ["O=S1(=O)NCCCNc2nc(ncc2-c2cc(Cl)c(Cl)cc2F)Nc2cccc1c2", "Ephrin type-A receptor 4 (Homo sapiens, UniProt P54764)", "True"],
  ["CSc1cc(-c2cnc3nc2NCCCNS(=O)(=O)c2cccc(c2)N3)ccc1F", "Ephrin type-A receptor 4 (Homo sapiens, UniProt P54764)", "True"],
  ["CC(C)Oc1cc(-c2cnc3nc2NCCCNS(=O)(=O)c2cccc(c2)N3)ccc1F", "Ephrin type-A receptor 4 (Homo sapiens, UniProt P54764)", "False"],
  ["COc1cc(-c2cnc3nc2NCCCNS(=O)(=O)c2cccc(c2)N3)cc(C(F)(F)F)c1", "Ephrin type-A receptor 4 (Homo sapiens, UniProt P54764)", "False"],
  ["COCCOc1ccc2cc1S(=O)(=O)NCCCNc1nc(ncc1-c1ccc(F)c(OC)c1)N2", "Ephrin type-A receptor 4 (Homo sapiens, UniProt P54764)", "True"]
]}

---

- test target: UniProtKB P29317
- Sequence (P29317 whole entry): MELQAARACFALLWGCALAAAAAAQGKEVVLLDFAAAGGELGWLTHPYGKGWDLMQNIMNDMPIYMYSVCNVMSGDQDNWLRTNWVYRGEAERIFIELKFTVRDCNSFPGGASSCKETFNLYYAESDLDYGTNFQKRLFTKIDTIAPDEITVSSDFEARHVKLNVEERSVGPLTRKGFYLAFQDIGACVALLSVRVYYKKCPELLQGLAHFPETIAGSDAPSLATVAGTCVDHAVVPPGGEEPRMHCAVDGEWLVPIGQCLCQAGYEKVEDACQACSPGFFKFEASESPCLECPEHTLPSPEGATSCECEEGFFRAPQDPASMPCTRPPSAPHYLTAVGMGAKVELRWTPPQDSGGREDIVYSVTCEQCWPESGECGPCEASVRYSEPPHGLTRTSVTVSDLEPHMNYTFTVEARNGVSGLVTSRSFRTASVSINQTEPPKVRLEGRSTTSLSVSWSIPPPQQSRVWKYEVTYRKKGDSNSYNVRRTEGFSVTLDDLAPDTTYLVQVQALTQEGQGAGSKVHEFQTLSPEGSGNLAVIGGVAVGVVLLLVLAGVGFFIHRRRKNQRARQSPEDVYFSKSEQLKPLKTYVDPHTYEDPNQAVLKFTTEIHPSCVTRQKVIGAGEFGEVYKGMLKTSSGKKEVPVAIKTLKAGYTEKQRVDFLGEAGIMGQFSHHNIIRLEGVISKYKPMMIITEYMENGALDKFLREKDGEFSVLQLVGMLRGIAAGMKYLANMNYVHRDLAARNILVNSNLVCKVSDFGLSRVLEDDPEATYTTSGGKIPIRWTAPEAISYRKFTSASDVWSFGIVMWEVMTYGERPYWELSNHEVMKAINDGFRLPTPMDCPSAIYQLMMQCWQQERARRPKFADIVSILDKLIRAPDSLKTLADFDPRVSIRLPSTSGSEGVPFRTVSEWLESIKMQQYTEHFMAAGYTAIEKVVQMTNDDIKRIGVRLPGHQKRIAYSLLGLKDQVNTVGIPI
Use 7 K as the dividing line for deltaTm, with the line itself on the label 1 side and lower values as label 0.

{"columns": ["given smiles", "test target", "category label"],
 "data": [
  ["CCNc1nc(Nc2cccc(S(=O)(=O)NC)c2)ncc1-c1ccc(F)c(OC)c1", "UniProtKB P29317", "label 0"],
  ["COc1cc(-c2cnc3nc2NCCCNS(=O)(=O)c2cc(ccc2OCC(N)=O)N3)ccc1F", "UniProtKB P29317", "label 0"],
  ["COc1ccc(-c2cnc3nc2NCCCNS(=O)(=O)c2cccc(c2)N3)cc1OC", "UniProtKB P29317", "label 0"],
  ["COC(=O)c1ccc(-c2cnc3nc2NCCCNS(=O)(=O)c2cccc(c2)N3)cc1OC", "UniProtKB P29317", "label 0"],
  ["COc1cc(-c2cnc3nc2NCCCNS(=O)(=O)c2cccc(c2)N3)ccc1C#N", "UniProtKB P29317", "label 1"],
  ["O=S1(=O)NCCCNc2nc(ncc2-c2ccc(Cl)c(Cl)c2)Nc2cccc1c2", "UniProtKB P29317", "label 0"],
  ["O=S1(=O)NCCCNc2nc(ncc2-c2ccc(F)c(Cl)c2)Nc2cccc1c2", "UniProtKB P29317", "label 1"],
  ["Nc1cc(-c2cnc3nc2NCCCNS(=O)(=O)c2cccc(c2)N3)ccc1F", "UniProtKB P29317", "label 1"],
  ["CC(C)Oc1cc(-c2cnc3nc2NCCCNS(=O)(=O)c2cccc(c2)N3)ccc1F", "UniProtKB P29317", "label 0"]
]}

---

- test target: Ephrin type-A receptor 4 (Homo sapiens)
- protocol details: Induction of stabilization of recombinant EPHA4 (unknown origin) assessed as change in melting temperature by differential scanning fluorimetry assay
readout kind: deltaTm (K)

{"columns": ["given smiles", "uom", "recorded value"],
 "data": [
  ["COC(=O)c1ccc(-c2cnc3nc2NCCCNS(=O)(=O)c2cccc(c2)N3)cc1OC", "K", 1.3],
  ["COc1cc(-c2cnc3nc2NCCCNS(=O)(=O)c2cccc(c2)N3)cc(OC)c1OC", "K", 2.2],
  ["COc1cc(-c2cnc3nc2NCCCNS(=O)(=O)c2cccc(c2)N3)ccc1Cl", "K", 4.1],
  ["COc1cc(-c2cnc3nc2NCCCNS(=O)(=O)c2cccc(c2)N3)ccc1C#N", "K", 5.2],
  ["COc1cc(-c2cnc3nc2NCCCNS(=O)(=O)c2cccc(c2)N3)c(F)cc1F", "K", 2.8],
  ["Nc1cc(-c2cnc3nc2NCCCNS(=O)(=O)c2cccc(c2)N3)ccc1F", "K", 4.4],
  ["COc1cc(-c2cnc3nc2NCCCNS(=O)(=O)c2cccc(c2)N3)ccc1Br", "K", 3.2],
  ["COc1c(F)ccc(-c2cnc3nc2NCCCNS(=O)(=O)c2cccc(c2)N3)c1F", "K", 4.9],
  ["COc1cc(-c2cnc3nc2NCCCNS(=O)(=O)c2cc(ccc2O)N3)ccc1F", "K", 3.3],
  ["O=S1(=O)NCCCNc2nc(ncc2-c2cc(Cl)c(F)cc2F)Nc2cccc1c2", "K", 3.2],
  ["COc1cc(-c2cnc3nc2NCCCNS(=O)(=O)c2cc(ccc2C)N3)ccc1F", "K", 3.6],
  ["O=S1(=O)NCCCNc2nc(ncc2-c2ccc(F)c(Cl)c2)Nc2cccc1c2", "K", 4.6],
  ["COc1cc(-c2cnc3nc2NCCCNS(=O)(=O)c2cccc(c2)N3)cc(F)c1F", "K", 1.2],
  ["COc1cc(-c2cnc3nc2NCCCNS(=O)(=O)c2cc(ccc2OC)N3)ccc1F", "K", 4.4],
  ["COC(=O)c1cc(-c2cnc3nc2NCCCNS(=O)(=O)c2cccc(c2)N3)ccc1F", "K", -0.6],
  ["COC(=O)COc1ccc2cc1S(=O)(=O)NCCCNc1nc(ncc1-c1ccc(F)c(OC)c1)N2", "K", 1.6],
  ["COc1cc(-c2cnc3nc2NCCCNS(=O)(=O)c2cc(ccc2OCC(N)=O)N3)ccc1F", "K", 2.3],
  ["O=S1(=O)NCCCNc2nc(ncc2-c2ccc(F)c(C(F)(F)F)c2)Nc2cccc1c2", "K", 0.7],
  ["O=S1(=O)NCCCNc2nc(ncc2-c2ccc(Cl)c(Cl)c2)Nc2cccc1c2", "K", 2.9],
  ["CN[C@@H]1C[C@H]2O[C@@](C)([C@@H]1OC)n1c3ccccc3c3c4c(c5c6ccccc6n2c5c31)C(=O)NC4", "K", 6.2]
]}

---

- test target: Ephrin type-B receptor 1 (Homo sapiens) (UniProt P54762)
- Sequence (P54762 whole entry): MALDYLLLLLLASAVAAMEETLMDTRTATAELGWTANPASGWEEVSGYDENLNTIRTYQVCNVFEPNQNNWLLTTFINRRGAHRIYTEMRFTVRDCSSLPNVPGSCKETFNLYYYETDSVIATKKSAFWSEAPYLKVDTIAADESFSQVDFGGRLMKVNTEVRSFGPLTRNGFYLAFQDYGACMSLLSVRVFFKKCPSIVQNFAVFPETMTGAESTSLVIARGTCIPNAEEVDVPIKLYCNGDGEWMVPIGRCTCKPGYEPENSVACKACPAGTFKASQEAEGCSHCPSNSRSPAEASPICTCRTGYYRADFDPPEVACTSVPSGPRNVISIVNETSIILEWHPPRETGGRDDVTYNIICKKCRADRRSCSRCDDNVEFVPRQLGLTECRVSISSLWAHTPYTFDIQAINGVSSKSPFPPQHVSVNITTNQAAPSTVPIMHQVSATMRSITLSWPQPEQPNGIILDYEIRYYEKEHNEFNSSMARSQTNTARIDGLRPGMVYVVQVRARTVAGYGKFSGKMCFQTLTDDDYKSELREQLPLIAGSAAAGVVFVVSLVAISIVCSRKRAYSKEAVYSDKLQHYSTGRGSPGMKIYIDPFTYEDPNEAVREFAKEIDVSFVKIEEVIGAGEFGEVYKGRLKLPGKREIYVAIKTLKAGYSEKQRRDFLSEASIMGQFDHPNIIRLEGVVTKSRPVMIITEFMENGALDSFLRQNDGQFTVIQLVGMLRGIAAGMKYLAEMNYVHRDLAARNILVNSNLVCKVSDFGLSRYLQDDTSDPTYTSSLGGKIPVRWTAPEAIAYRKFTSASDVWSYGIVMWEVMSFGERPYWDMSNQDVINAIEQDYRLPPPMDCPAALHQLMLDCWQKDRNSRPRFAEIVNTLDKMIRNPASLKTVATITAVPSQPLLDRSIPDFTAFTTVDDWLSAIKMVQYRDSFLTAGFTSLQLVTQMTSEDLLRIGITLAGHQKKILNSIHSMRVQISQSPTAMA
- protocol details: Induction of stabilization of recombinant EPHB1 (unknown origin) assessed as change in melting temperature by differential scanning fluorimetry assay
Listing of recorded deltaTm by entry.

{"columns": ["given smiles", "test target", "deltaTm / K"],
 "data": [
  ["CN[C@@H]1C[C@H]2O[C@@](C)([C@@H]1OC)n1c3ccccc3c3c4c(c5c6ccccc6n2c5c31)C(=O)NC4", "Ephrin type-B receptor 1 (Homo sapiens) (UniProt P54762)", 6.4],
  ["COc1cc(-c2cnc3nc2NCCCNS(=O)(=O)c2cc(ccc2Cl)N3)ccc1F", "Ephrin type-B receptor 1 (Homo sapiens) (UniProt P54762)", 2.5],
  ["COc1cc(-c2cnc3nc2NCCCNS(=O)(=O)c2cc(ccc2C)N3)ccc1F", "Ephrin type-B receptor 1 (Homo sapiens) (UniProt P54762)", 4.2],
  ["COc1cc(-c2cnc3nc2NCCCNS(=O)(=O)c2cc(ccc2OC)N3)ccc1F", "Ephrin type-B receptor 1 (Homo sapiens) (UniProt P54762)", 3.1],
  ["COC(=O)COc1ccc2cc1S(=O)(=O)NCCCNc1nc(ncc1-c1ccc(F)c(OC)c1)N2", "Ephrin type-B receptor 1 (Homo sapiens) (UniProt P54762)", 1],
  ["Cc1cc(Cl)c(Cl)cc1-c1cnc2nc1NCCCNS(=O)(=O)c1cccc(c1)N2", "Ephrin type-B receptor 1 (Homo sapiens) (UniProt P54762)", 3.2],
  ["COC(=O)c1ccc(-c2cnc3nc2NCCCNS(=O)(=O)c2cccc(c2)N3)cc1OC", "Ephrin type-B receptor 1 (Homo sapiens) (UniProt P54762)", 1.1],
  ["COc1cc(-c2cnc3nc2NCCCNS(=O)(=O)c2cccc(c2)N3)ccc1Br", "Ephrin type-B receptor 1 (Homo sapiens) (UniProt P54762)", 2.8],
  ["COc1cc(-c2cnc3nc2NCCCNS(=O)(=O)c2cc(ccc2OCC(N)=O)N3)ccc1F", "Ephrin type-B receptor 1 (Homo sapiens) (UniProt P54762)", 1.5]
]}
